Values compiled from patent US20250066490A1.

Biological target: T1, CD70 ECD (Homo sapiens, UniProt P32970)
T1 sequence (P32970 39-193 limits assumed): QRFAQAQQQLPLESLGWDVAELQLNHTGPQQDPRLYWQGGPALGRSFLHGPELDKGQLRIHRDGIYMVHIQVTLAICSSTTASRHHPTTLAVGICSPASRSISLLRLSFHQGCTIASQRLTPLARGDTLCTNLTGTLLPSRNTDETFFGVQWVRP
Assay: Biacore affinity measurement on immobilized CD70 ECD
Format: binding
Conditions: 25° C., CD70 immobilized
Property name: Rmax (RU)
Express the result in RU but write the number alone.

So for 2A4P0L1: new VH/VL combination derived from the VH of 2A4 and the VL of 2D2 (antibody, V domains shown) VH: QVQLQESGPGLVKPSETLSLTCTVSGGSVSSDYYYWSWIRQPPGKGLEWLGYIYYSGSTNYNPSLKSRVTISVDTSKNQFSLKLRSVTTADTAVYYCARGDGDYGGNVFPYWGQGTLVTVSS VL: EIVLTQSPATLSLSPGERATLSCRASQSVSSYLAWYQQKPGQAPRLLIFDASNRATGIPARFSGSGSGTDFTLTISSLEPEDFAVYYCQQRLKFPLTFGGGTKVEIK , the logged Rmax (RU) turned out to be 45.47
